test.description: clinical
protocol.conditions: human, plasma, im, 20 mg
quantity.name: level at 6480 h (ng/mL)
Supply the numeric figure in ng/mL, leaving out any unit text.

Query: Which measured level at 6480 h value corresponds to C[C@@H](O)[C@@H]1NC(=O)[C@H](CCCCN)NC(=O)[C@@H](Cc2c[nH]c3ccccc23)NC(=O)[C@H](Cc2ccccc2)NC(=O)[C@@H](NC(=O)[C@H](N)Cc2ccccc2)CSSC[C@@H](C(=O)N[C@H](CO)[C@@H](C)O)NC1=O [octreotide] ?
Result: 3.24
